ASSAY_TARGET: UniProt:P03956
Sequence (P03956 100-469, species assumed): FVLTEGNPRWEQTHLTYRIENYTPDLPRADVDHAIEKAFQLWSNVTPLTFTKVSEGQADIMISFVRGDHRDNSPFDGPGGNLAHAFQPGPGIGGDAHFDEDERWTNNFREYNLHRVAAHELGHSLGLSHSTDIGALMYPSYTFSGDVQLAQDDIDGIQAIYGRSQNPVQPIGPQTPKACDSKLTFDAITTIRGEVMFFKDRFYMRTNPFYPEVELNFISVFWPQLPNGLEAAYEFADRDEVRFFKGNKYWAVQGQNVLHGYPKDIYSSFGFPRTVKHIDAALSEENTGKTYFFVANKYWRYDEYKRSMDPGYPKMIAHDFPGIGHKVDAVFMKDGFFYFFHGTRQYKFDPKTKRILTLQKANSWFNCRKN
ASSAY_NAME: MMP-1 inhibitory action (Type I collagen Activity Measurement kit, FITC-labeled collagen type I)
Type: biochemical
COND: Experimental Example 2; read-out: IC50 MMP1
pIC50: −log10 of the molar value.
The following compounds are listed with their measured pIC50 values.

Check out these entries, answers already filled in.
compound="CN(C)CCSCC1(c2ccccc2)CC1(NS(=O)(=O)c1ccc(-c2ccc(Cl)cc2)s1)C(=O)O (stereo not shown)" observed_result="≤ 5.00"
compound="CC1[C@H](c2ccccc2)[C@]1(NS(=O)(=O)c1cn2cc(Cn3cc(Cl)cn3)nc2s1)C(=O)O (stereo partly shown)" observed_result="≤ 6.00"
compound="CSCC1(c2ccccc2)CC1(NS(=O)(=O)c1ccc(-c2ccc(Cl)cc2)s1)C(=O)O (stereo not shown)" observed_result="≤ 6.00"
compound="CC1[C@H](c2ccccc2)[C@]1(NS(=O)(=O)c1ccc(-c2cc(N(C)C)on2)s1)C(=O)O (stereo partly shown)" observed_result="> 6.00"
compound="O=C1OCCN1CC1(c2ccccc2)CC1(NS(=O)(=O)c1ccc(-c2ccc(Cl)cc2)s1)C(=O)O (stereo not shown)" observed_result="≤ 5.00"

Query block: # input compound: O=C(O)C1(NS(=O)(=O)c2ccc(-c3ccc(Cl)cc3)s2)C2CCOc3ccccc3C21 (stereo not shown) ; wanted: its pIC50
Result block: ≤ 6.00

Query block: Next compound up: `C[C@]1(c2ccccc2)C[C@@]1(NS(=O)(=O)c1ccc(-c2ccc(Cl)c([N+](=O)[O-])c2)s1)C(=O)O`
Result block: ≤ 5.00
